study.system: Phosphatidylinositol 4,5-bisphosphate 3-kinase catalytic subunit beta isoform (Homo sapiens)
Sequence (P42338 whole entry, canonical isoform): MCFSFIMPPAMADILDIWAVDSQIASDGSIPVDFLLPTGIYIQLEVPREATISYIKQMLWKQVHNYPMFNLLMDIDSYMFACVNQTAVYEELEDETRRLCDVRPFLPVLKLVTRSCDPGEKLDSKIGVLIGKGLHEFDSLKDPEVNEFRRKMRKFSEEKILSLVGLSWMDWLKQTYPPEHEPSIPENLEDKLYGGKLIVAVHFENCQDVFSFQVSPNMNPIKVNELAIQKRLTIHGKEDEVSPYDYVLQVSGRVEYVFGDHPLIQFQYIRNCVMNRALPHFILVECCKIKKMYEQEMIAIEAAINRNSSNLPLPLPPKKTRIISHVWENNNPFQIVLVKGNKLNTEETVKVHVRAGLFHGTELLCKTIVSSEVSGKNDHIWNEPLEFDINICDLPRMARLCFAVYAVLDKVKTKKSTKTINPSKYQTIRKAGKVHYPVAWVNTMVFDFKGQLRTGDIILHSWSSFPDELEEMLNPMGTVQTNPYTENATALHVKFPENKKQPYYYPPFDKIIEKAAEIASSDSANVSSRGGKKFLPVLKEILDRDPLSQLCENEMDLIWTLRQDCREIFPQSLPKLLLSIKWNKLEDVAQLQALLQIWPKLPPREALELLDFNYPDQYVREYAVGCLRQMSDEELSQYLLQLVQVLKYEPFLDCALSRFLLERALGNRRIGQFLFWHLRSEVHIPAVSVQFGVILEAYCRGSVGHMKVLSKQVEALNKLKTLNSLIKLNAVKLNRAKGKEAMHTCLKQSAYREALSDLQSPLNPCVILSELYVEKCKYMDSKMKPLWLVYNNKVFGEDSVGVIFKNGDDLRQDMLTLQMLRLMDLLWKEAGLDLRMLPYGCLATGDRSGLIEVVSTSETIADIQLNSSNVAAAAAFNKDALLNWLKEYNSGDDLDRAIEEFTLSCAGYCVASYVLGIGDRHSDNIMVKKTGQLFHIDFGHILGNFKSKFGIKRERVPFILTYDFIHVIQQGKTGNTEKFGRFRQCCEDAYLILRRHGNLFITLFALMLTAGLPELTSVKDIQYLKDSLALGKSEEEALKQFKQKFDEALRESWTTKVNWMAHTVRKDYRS
experimental.protocol: Inhibition of PI3Kbeta
measurement.type: pIC50
Friendly reminder that pIC50 comes from taking -log10 of the concentration in mol/L.

Task: Provide pIC50 value for the following compound: CCn1nnc2c(N3CCOCC3)nc(-c3ccc(NC(=O)Nc4ccc(C(=O)N5CCN(C)CC5)cc4)cc3)nc21
Result: 8.15

###

experimental.protocol: Plasma concentration in human MDA-MB-361 cells implanted mouse at 50 mg/kg, iv after 8 hrs
Format: ADME, organism-based
Design: dose 50 mg/kg, route intravenous
measurement.type: concentration at 8 h (µg/mL)
Dear colleague, please return just the value in µg/mL, with no unit written.

Task: Provide concentration at 8 h value for the following compound: CCn1nnc2c(N3CCOCC3)nc(-c3ccc(NC(=O)Nc4ccc(C(=O)N5CCN(C)CC5)cc4)cc3)nc21
Result: 0.525
